Test system: scuticociliates
protocol.text: Scuticociliates extermination effect of candidate substances in MEM medium
Assay type: cell-based
conditions.used: MEM medium, Dosage 300 ppm
metric: Survival or Death of scuticociliates (activity and shape, microscope)

- compound: "CCCSc1ccc2nc(NC(=O)OC)[nH]c2c1 [Albendazole]"
  experimental.value: "Survival"
- compound: "COC(=O)Nc1nc2ccc(Sc3ccccc3)cc2[nH]1 [Fenbendazole]"
  experimental.value: "Survival"
- compound: "COC(=O)Nc1nc2ccc([S+]([O-])c3ccccc3)cc2[nH]1 (stereo not shown) [Oxfendazole]"
  experimental.value: "Survival"
- compound: "COC(=O)Nc1nc2ccc(C(=O)c3ccccc3)cc2[nH]1 [Mebendazole]"
  experimental.value: "Death"

* * *

System: scuticociliates
protocol.text: Scuticociliates extermination effect of candidate substances in seawater medium
Type: cell-based
conditions.used: seawater medium, 4 hour, Dosage 600 ppm
metric: Survival or Death of scuticociliates (activity and shape, microscope)

Guide cases for Survival or Death of scuticociliates (activity and shape, microscope), answers given:
- molecule: "COC(=O)Nc1nc2ccc(C(=O)c3ccccc3)cc2[nH]1 [Mebendazole]"
  experimental.value: "Death"
- molecule: "COP(=O)(OC)C(O)C(Cl)(Cl)Cl (stereo not drawn) [Trichlorfon]"
  experimental.value: "Death"
- molecule: "CCCSc1ccc2nc(NC(=O)OC)[nH]c2c1 [Albendazole]"
  experimental.value: "Survival"
- molecule: "O=C(OCc1ccccc1)c1ccccc1 [Benzyl benzonate]"
  experimental.value: "Death"
- molecule: "COC(=O)Nc1nc2ccc(Sc3ccccc3)cc2[nH]1 [Fenbendazole]"
  experimental.value: "Survival"

Input line: Lab note: need Survival or Death of scuticociliates (activity and shape, microscope) with scuticociliates for entry COC(=O)Nc1nc2ccc([S+]([O-])c3ccccc3)cc2[nH]1 (stereo not drawn) [Oxfendazole] , please look it up.
Output line: Survival

* * *

Tested on: scuticociliates
protocol.text: Scuticociliates extermination effect of candidate substances in MEM medium
Assay type: cell-based
conditions.used: MEM medium, Dosage 1000 ppm
metric: Survival or Death of scuticociliates (activity and shape, microscope)

Guide cases for Survival or Death of scuticociliates (activity and shape, microscope), answers given:
- compound: "COC(=O)Nc1nc2ccc(C(=O)c3ccccc3)cc2[nH]1"
  experimental.value: "Death"
- compound: "CC[C@H](C)[C@H]1O[C@]2(CC[C@@H]1C)C[C@@H]1C[C@@H](C/C=C(\\C)[C@@H](O[C@H]3C[C@H](OC)[C@@H](O[C@H]4C[C@H](OC)[C@@H](O)[C@H](C)O4)[C@H](C)O3)[C@@H](C)/C=C/C=C3\\CO[C@@H]4[C@H](O)C(C)=C[C@@H](C(=O)O1)[C@]34O)O2"
  experimental.value: "Survival"
- compound: "COC(=O)Nc1nc2ccc([S+]([O-])c3ccccc3)cc2[nH]1 (centres unmarked)"
  experimental.value: "Death"
- compound: "c1ccc(C2CN3CCSC3=N2)cc1 (centres unmarked)"
  experimental.value: "Survival"

// below: Survival or Death of scuticociliates (activity and shape, microscope) requested for another compound
Input line: What value of Survival or Death of scuticociliates (activity and shape, microscope) has been recorded for this entry: CCCSc1ccc2nc(NC(=O)OC)[nH]c2c1
Output line: Death

* * *

Tested on: scuticociliates
protocol.text: Scuticociliates extermination effect of candidate substances in seawater medium
Assay type: cell-based
conditions.used: seawater medium, 4 hour, Dosage 3500 ppm
metric: Survival or Death of scuticociliates (activity and shape, microscope)

Guide cases for Survival or Death of scuticociliates (activity and shape, microscope), answers given:
- molecule: "CCCOc1ccc2nc(NC(=O)OC)[nH]c2c1 [Oxibendazole]"
  experimental.value: "Death"
- molecule: "c1ccc([C@H]2CN3CCSC3=N2)cc1 [Levamisol]"
  experimental.value: "Survival"
- molecule: "CC[C@H](C)[C@H]1O[C@]2(CC[C@@H]1C)C[C@@H]1C[C@@H](C/C=C(\\C)[C@@H](O[C@H]3C[C@H](OC)[C@@H](O[C@H]4C[C@H](OC)[C@@H](O)[C@H](C)O4)[C@H](C)O3)[C@@H](C)/C=C/C=C3\\CO[C@@H]4[C@H](O)C(C)=C[C@@H](C(=O)O1)[C@]34O)O2 [Ivermectin]"
  experimental.value: "Survival"
- molecule: "CN1CCCN=C1/C=C/c1cccs1 [Pyrantel]"
  experimental.value: "Survival"
- molecule: "c1ccc(C2CN3CCSC3=N2)cc1 (stereo not drawn) [Tetramisole]"
  experimental.value: "Survival"

// below: Survival or Death of scuticociliates (activity and shape, microscope) requested for another molecule
Input line: Lab note: need Survival or Death of scuticociliates (activity and shape, microscope) with scuticociliates for entry C1CNCCN1 [Piperazine] , please look it up.
Output line: Survival

* * *

System: scuticociliates
protocol.text: Scuticociliates extermination effect of candidate substances in seawater medium
Assay type: cell-based
conditions.used: seawater medium, 4 hour, Dosage 50 ppm
metric: Survival or Death of scuticociliates (activity and shape, microscope)

- compound: "COC(=O)Nc1nc2ccc(C(=O)c3ccccc3)cc2[nH]1 [Mebendazole]"
  experimental.value: "Survival"
- compound: "O=C(OCc1ccccc1)c1ccccc1 [Benzyl benzonate]"
  experimental.value: "Survival"
- compound: "COC(=O)Nc1nc2ccc(Sc3ccccc3)cc2[nH]1 [Fenbendazole]"
  experimental.value: "Survival"
- compound: "COP(=O)(OC)C(O)C(Cl)(Cl)Cl (stereo not shown) [Trichlorfon]"
  experimental.value: "Survival"
- compound: "Nc1cc(C(Cl)=C(Cl)Cl)c(S(N)(=O)=O)cc1S(N)(=O)=O [Clorsulon]"
  experimental.value: "Survival"
- compound: "CCCSc1ccc2nc(NC(=O)OC)[nH]c2c1 [Albendazole]"
  experimental.value: "Survival"

// below: Survival or Death of scuticociliates (activity and shape, microscope) requested for another compound
Input line: What value of Survival or Death of scuticociliates (activity and shape, microscope) has been recorded for this entry: COC(=O)Nc1nc2ccc([S+]([O-])c3ccccc3)cc2[nH]1 (stereo not shown) [Oxfendazole]
Output line: Survival

* * *

Tested on: scuticociliates
protocol.text: Scuticociliates extermination effect of candidate substances in seawater medium
Type: cell-based
conditions.used: seawater medium, 4 hour, Dosage 800 ppm
metric: Survival or Death of scuticociliates (activity and shape, microscope)

Guide cases for Survival or Death of scuticociliates (activity and shape, microscope), answers given:
- compound: "CC[C@H](C)[C@H]1O[C@]2(C=C[C@@H]1C)C[C@@H]1C[C@@H](C/C=C(\\C)[C@@H](O[C@H]3C[C@H](OC)[C@@H](O[C@H]4C[C@H](OC)[C@@H](O)[C@H](C)O4)[C@H](C)O3)[C@@H](C)/C=C/C=C3\\CO[C@@H]4[C@H](O)C(C)=C[C@@H](C(=O)O1)[C@]34O)O2 [Abamectin]"
  experimental.value: "Death"
- compound: "O=C(OCc1ccccc1)c1ccccc1 [Benzyl benzonate]"
  experimental.value: "Death"
- compound: "COC(=O)Nc1nc2ccc(Sc3ccccc3)cc2[nH]1 [Fenbendazole]"
  experimental.value: "Δ"
- compound: "CCCSc1ccc2nc(NC(=O)OC)[nH]c2c1 [Albendazole]"
  experimental.value: "Δ"
- compound: "COC(=O)Nc1nc2ccc(C(=O)c3ccccc3)cc2[nH]1 [Mebendazole]"
  experimental.value: "Death"

Input line: What value of Survival or Death of scuticociliates (activity and shape, microscope) has been recorded for this entry: COC(=O)Nc1nc2ccc([S+]([O-])c3ccccc3)cc2[nH]1 (stereo not drawn) [Oxfendazole]
Output line: Δ

* * *

Tested on: scuticociliates
protocol.text: Scuticociliates extermination effect of candidate substances in MEM medium
Type: cell-based
conditions.used: MEM medium, Dosage 2500 ppm
metric: Survival or Death of scuticociliates (activity and shape, microscope)

- compound: "CCCOc1ccc2nc(NC(=O)OC)[nH]c2c1"
  experimental.value: "Death"
- compound: "c1ccc(C2CN3CCSC3=N2)cc1 (stereo not drawn)"
  experimental.value: "Survival"
- compound: "CC[C@H](C)[C@H]1O[C@]2(CC[C@@H]1C)C[C@@H]1C[C@@H](C/C=C(\\C)[C@@H](O[C@H]3C[C@H](OC)[C@@H](O[C@H]4C[C@H](OC)[C@@H](O)[C@H](C)O4)[C@H](C)O3)[C@@H](C)/C=C/C=C3\\CO[C@@H]4[C@H](O)C(C)=C[C@@H](C(=O)O1)[C@]34O)O2"
  experimental.value: "Survival"

* * *

Tested on: scuticociliates
protocol.text: Scuticociliates extermination effect of candidate substances in seawater medium
Format: cell-based
conditions.used: seawater medium, 4 hour, Dosage 2500 ppm
metric: Survival or Death of scuticociliates (activity and shape, microscope)

Guide cases for Survival or Death of scuticociliates (activity and shape, microscope), answers given:
- compound: "CN1CCCN=C1/C=C/c1cccs1"
  experimental.value: "Survival"
- compound: "c1ccc([C@H]2CN3CCSC3=N2)cc1"
  experimental.value: "Survival"
- compound: "CC[C@H](C)[C@H]1O[C@]2(CC[C@@H]1C)C[C@@H]1C[C@@H](C/C=C(\\C)[C@@H](O[C@H]3C[C@H](OC)[C@@H](O[C@H]4C[C@H](OC)[C@@H](O)[C@H](C)O4)[C@H](C)O3)[C@@H](C)/C=C/C=C3\\CO[C@@H]4[C@H](O)C(C)=C[C@@H](C(=O)O1)[C@]34O)O2"
  experimental.value: "Survival"
- compound: "c1ccc(C2CN3CCSC3=N2)cc1 (stereo not shown)"
  experimental.value: "Survival"
- compound: "C1CNCCN1"
  experimental.value: "Survival"

// for each compound below, give its Survival or Death of scuticociliates (activity and shape, microscope)
1. CCCOc1ccc2nc(NC(=O)OC)[nH]c2c1
2. O=[N+]([O-])NC1=NCCN1Cc1ccc(Cl)nc1

Output line:
["Δ", "Death"]
